- TEST METHOD NOTES: in vivo
- CONDITION SUMMARY: mouse, pancreas, iv, 40 pmol, Uptake, pancreas, 0.5 h after injection; 40 pmol i.v.
Where a SMILES comes first, the peptide text is derived from it. [ ]: non-standard residue; d: D form. Tyr(3-I) = N[C@@H](Cc1ccc(O)c(I)c1)C(=O)O; Sta = CC(C)C[C@H](N)[C@@H](O)CC(=O)O; AEEA = NCCOCCOCC(=O)O
PARAMETER: tissue uptake at 0.5 h (%ID/g)

[[record]]
molecule = "CC(C)C[C@H](NC(=O)C[C@H](O)[C@H](CC(C)C)NC(=O)[C@H](Cc1c[nH]cn1)NC(=O)CNC(=O)[C@@H](NC(=O)[C@H](C)NC(=O)[C@H](Cc1c[nH]c2ccccc12)NC(=O)[C@H](CCC(N)=O)NC(=O)[C@@H](Cc1ccccc1)NC(=O)COCCOCCNC(=O)[C@@H](N)Cc1ccc(O)c(I)c1)C(C)C)C(N)=O [[^125I]I-Tyr-PEG2-RM26] (H-[Tyr(3-I)][AEEA][dF]QWAVGH[Sta]L-NH2)"
measured = 10.1

[[record]]
molecule = "CC(C)C[C@H](NC(=O)C[C@H](O)[C@H](CC(C)C)NC(=O)[C@H](Cc1c[nH]cn1)NC(=O)CNC(=O)[C@@H](NC(=O)[C@H](C)NC(=O)[C@H](Cc1c[nH]c2ccccc12)NC(=O)[C@H](CCC(N)=O)NC(=O)[C@@H](Cc1ccccc1)NC(=O)COCCOCCNC(=O)CN1CCN(CC(=O)O)CCN(CC(=O)O)CCN(CC(=O)O)CC1)C(C)C)C(N)=O [[^111In]In-DOTA-PEG2-RM26, metal not drawn, reference compound]"
measured = 6.5


====

- TEST METHOD NOTES: in vivo
- CONDITION SUMMARY: female, BALB/c nu/nu, mouse, tumour and thyroid, iv, total radioactivity
Where a SMILES comes first, the peptide text is derived from it. [ ]: non-standard residue; d: D form. Tyr(3-I) = N[C@@H](Cc1ccc(O)c(I)c1)C(=O)O; Sta = CC(C)C[C@H](N)[C@@H](O)CC(=O)O; AEEA = NCCOCCOCC(=O)O
PARAMETER: tissue to tissue ratio at 0.5 h

[[record]]
compound = "CC(C)C[C@H](NC(=O)C[C@H](O)[C@H](CC(C)C)NC(=O)[C@H](Cc1c[nH]cn1)NC(=O)CNC(=O)[C@@H](NC(=O)[C@H](C)NC(=O)[C@H](Cc1c[nH]c2ccccc12)NC(=O)[C@H](CCC(N)=O)NC(=O)[C@@H](Cc1ccccc1)NC(=O)COCCOCCNC(=O)[C@@H](N)Cc1ccc(O)c(I)c1)C(C)C)C(N)=O [[^125I]I-Tyr-PEG2-RM26] (H-[Tyr(3-I)][AEEA][dF]QWAVGH[Sta]L-NH2)"
parameter = "tissue to tissue ratio at 0.5 h"
measured = 1


====

// reported tissue uptake at 3 h for each item listed
- TEST METHOD NOTES: in vivo
- CONDITION SUMMARY: mouse, pancreas, iv, 40 pmol, Uptake, pancreas, 3 h after injection; 40 pmol i.v.
Where a SMILES comes first, the peptide text is derived from it. [ ]: non-standard residue; d: D form. Tyr(3-I) = N[C@@H](Cc1ccc(O)c(I)c1)C(=O)O; Sta = CC(C)C[C@H](N)[C@@H](O)CC(=O)O; AEEA = NCCOCCOCC(=O)O
PARAMETER: tissue uptake at 3 h

[[record]]
molecule = "CC(C)C[C@H](NC(=O)C[C@H](O)[C@H](CC(C)C)NC(=O)[C@H](Cc1c[nH]cn1)NC(=O)CNC(=O)[C@@H](NC(=O)[C@H](C)NC(=O)[C@H](Cc1c[nH]c2ccccc12)NC(=O)[C@H](CCC(N)=O)NC(=O)[C@@H](Cc1ccccc1)NC(=O)COCCOCCNC(=O)CN1CCN(CC(=O)O)CCN(CC(=O)O)CCN(CC(=O)O)CC1)C(C)C)C(N)=O [[^111In]In-DOTA-PEG2-RM26, metal not drawn, reference compound]"
parameter = "tissue uptake at 3 h"
measured = "0.2 %ID/g"

[[record]]
molecule = "CC(C)C[C@H](NC(=O)C[C@H](O)[C@H](CC(C)C)NC(=O)[C@H](Cc1c[nH]cn1)NC(=O)CNC(=O)[C@@H](NC(=O)[C@H](C)NC(=O)[C@H](Cc1c[nH]c2ccccc12)NC(=O)[C@H](CCC(N)=O)NC(=O)[C@@H](Cc1ccccc1)NC(=O)COCCOCCNC(=O)[C@@H](N)Cc1ccc(O)c(I)c1)C(C)C)C(N)=O [[^125I]I-Tyr-PEG2-RM26] (H-[Tyr(3-I)][AEEA][dF]QWAVGH[Sta]L-NH2)"
parameter = "tissue uptake at 3 h"
measured = "2.3 %ID/g"


====

- TEST METHOD NOTES: in vivo
- CONDITION SUMMARY: female, BALB/c nu/nu, mouse, tumour and liver, iv, total radioactivity
Where a SMILES comes first, the peptide text is derived from it. [ ]: non-standard residue; d: D form. Tyr(3-I) = N[C@@H](Cc1ccc(O)c(I)c1)C(=O)O; Sta = CC(C)C[C@H](N)[C@@H](O)CC(=O)O; AEEA = NCCOCCOCC(=O)O
PARAMETER: tissue to tissue ratio at 24 h

[[record]]
compound = "CC(C)C[C@H](NC(=O)C[C@H](O)[C@H](CC(C)C)NC(=O)[C@H](Cc1c[nH]cn1)NC(=O)CNC(=O)[C@@H](NC(=O)[C@H](C)NC(=O)[C@H](Cc1c[nH]c2ccccc12)NC(=O)[C@H](CCC(N)=O)NC(=O)[C@@H](Cc1ccccc1)NC(=O)COCCOCCNC(=O)[C@@H](N)Cc1ccc(O)c(I)c1)C(C)C)C(N)=O [[^125I]I-Tyr-PEG2-RM26] (H-[Tyr(3-I)][AEEA][dF]QWAVGH[Sta]L-NH2)"
measured = 0.6


====

- TEST METHOD NOTES: in vivo
- CONDITION SUMMARY: mouse, blood, iv, 40 pmol, Uptake, blood, 3 h after injection; 40 pmol i.v.
Where a SMILES comes first, the peptide text is derived from it. [ ]: non-standard residue; d: D form. Tyr(3-I) = N[C@@H](Cc1ccc(O)c(I)c1)C(=O)O; Sta = CC(C)C[C@H](N)[C@@H](O)CC(=O)O; AEEA = NCCOCCOCC(=O)O
PARAMETER: tissue uptake at 3 h (%ID/g)

[[record]]
compound = "CC(C)C[C@H](NC(=O)C[C@H](O)[C@H](CC(C)C)NC(=O)[C@H](Cc1c[nH]cn1)NC(=O)CNC(=O)[C@@H](NC(=O)[C@H](C)NC(=O)[C@H](Cc1c[nH]c2ccccc12)NC(=O)[C@H](CCC(N)=O)NC(=O)[C@@H](Cc1ccccc1)NC(=O)COCCOCCNC(=O)CN1CCN(CC(=O)O)CCN(CC(=O)O)CCN(CC(=O)O)CC1)C(C)C)C(N)=O [[^111In]In-DOTA-PEG2-RM26, metal not drawn, reference compound]"
parameter = "tissue uptake at 3 h"
measured = 0.03

[[record]]
compound = "CC(C)C[C@H](NC(=O)C[C@H](O)[C@H](CC(C)C)NC(=O)[C@H](Cc1c[nH]cn1)NC(=O)CNC(=O)[C@@H](NC(=O)[C@H](C)NC(=O)[C@H](Cc1c[nH]c2ccccc12)NC(=O)[C@H](CCC(N)=O)NC(=O)[C@@H](Cc1ccccc1)NC(=O)COCCOCCNC(=O)[C@@H](N)Cc1ccc(O)c(I)c1)C(C)C)C(N)=O [[^125I]I-Tyr-PEG2-RM26] (H-[Tyr(3-I)][AEEA][dF]QWAVGH[Sta]L-NH2)"
parameter = "tissue uptake at 3 h"
measured = 2.9


====

- TEST METHOD NOTES: in vivo
- CONDITION SUMMARY: female, BALB/c nu/nu, mouse, tumour and kidney, iv, total radioactivity
Where a SMILES comes first, the peptide text is derived from it. [ ]: non-standard residue; d: D form. Tyr(3-I) = N[C@@H](Cc1ccc(O)c(I)c1)C(=O)O; Sta = CC(C)C[C@H](N)[C@@H](O)CC(=O)O; AEEA = NCCOCCOCC(=O)O
PARAMETER: tissue to tissue ratio at 0.5 h

[[record]]
molecule = "CC(C)C[C@H](NC(=O)C[C@H](O)[C@H](CC(C)C)NC(=O)[C@H](Cc1c[nH]cn1)NC(=O)CNC(=O)[C@@H](NC(=O)[C@H](C)NC(=O)[C@H](Cc1c[nH]c2ccccc12)NC(=O)[C@H](CCC(N)=O)NC(=O)[C@@H](Cc1ccccc1)NC(=O)COCCOCCNC(=O)[C@@H](N)Cc1ccc(O)c(I)c1)C(C)C)C(N)=O [[^125I]I-Tyr-PEG2-RM26] (H-[Tyr(3-I)][AEEA][dF]QWAVGH[Sta]L-NH2)"
measured = 0.5

